assayed.system: human Nav1.7 (Homo sapiens (Human), UniProt Q15858)
Sequence (Q15858 whole entry): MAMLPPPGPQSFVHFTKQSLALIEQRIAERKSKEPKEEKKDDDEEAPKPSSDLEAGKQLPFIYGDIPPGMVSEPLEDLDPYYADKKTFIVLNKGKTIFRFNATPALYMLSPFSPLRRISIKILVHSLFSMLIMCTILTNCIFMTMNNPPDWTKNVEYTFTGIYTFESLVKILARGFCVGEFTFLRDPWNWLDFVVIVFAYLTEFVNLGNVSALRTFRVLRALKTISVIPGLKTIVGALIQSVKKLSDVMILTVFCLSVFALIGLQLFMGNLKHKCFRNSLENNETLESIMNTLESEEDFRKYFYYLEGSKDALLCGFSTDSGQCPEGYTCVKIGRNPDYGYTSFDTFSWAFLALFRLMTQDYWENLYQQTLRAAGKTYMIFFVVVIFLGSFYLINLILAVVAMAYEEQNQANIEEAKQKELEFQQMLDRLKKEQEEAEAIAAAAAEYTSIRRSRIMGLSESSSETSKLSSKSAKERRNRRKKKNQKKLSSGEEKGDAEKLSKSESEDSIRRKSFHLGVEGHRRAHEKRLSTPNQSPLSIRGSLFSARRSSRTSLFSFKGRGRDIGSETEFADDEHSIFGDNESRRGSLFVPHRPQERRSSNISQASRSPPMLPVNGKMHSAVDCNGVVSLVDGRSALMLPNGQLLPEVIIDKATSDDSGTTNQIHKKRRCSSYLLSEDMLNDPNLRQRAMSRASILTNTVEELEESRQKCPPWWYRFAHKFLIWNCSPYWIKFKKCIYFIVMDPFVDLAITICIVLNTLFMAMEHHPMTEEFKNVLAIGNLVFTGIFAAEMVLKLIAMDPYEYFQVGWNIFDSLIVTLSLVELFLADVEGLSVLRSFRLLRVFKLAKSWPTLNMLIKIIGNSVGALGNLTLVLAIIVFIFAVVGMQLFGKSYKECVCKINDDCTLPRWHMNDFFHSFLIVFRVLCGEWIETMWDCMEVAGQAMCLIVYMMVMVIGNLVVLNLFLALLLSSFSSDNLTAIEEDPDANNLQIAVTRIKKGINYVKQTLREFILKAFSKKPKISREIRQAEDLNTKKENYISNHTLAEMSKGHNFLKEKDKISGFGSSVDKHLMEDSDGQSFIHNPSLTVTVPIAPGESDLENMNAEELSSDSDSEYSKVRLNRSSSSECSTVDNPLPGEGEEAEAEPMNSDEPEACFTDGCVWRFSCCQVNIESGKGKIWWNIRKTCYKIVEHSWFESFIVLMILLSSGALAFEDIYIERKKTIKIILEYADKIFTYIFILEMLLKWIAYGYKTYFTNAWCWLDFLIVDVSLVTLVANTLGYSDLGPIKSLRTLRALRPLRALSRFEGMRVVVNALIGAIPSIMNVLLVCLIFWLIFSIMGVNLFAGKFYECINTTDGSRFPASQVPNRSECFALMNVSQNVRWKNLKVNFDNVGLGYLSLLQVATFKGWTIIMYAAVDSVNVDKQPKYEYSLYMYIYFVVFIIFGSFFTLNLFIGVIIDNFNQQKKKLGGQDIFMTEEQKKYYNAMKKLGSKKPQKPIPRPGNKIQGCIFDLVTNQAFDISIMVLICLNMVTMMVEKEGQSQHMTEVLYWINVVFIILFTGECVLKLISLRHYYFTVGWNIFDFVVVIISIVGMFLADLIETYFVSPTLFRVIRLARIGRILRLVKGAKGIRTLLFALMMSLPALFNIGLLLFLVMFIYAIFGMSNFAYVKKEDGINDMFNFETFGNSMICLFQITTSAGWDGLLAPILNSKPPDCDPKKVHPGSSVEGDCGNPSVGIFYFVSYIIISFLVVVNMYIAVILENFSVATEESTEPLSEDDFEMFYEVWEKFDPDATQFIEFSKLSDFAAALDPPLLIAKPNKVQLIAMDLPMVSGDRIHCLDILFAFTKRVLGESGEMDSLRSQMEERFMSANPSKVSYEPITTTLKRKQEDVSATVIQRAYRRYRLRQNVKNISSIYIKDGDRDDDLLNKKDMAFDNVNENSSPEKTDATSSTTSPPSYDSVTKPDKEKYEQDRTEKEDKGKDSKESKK
Sequence (Q07699 19-218 partner): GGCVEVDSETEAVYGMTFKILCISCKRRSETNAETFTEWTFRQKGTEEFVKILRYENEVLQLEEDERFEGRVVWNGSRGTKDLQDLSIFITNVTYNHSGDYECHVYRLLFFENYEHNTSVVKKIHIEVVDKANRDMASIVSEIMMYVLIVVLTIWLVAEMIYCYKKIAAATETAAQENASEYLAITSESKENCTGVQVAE
experiment.description: Human Nav1.7 inhibitory activity evaluation (automated patch clamp QPatch16X, HEK293A cells stably expressing human Nav1.7 and human Navβ1)
Type: cell-based
condition.summary: human Nav1.7, automated patch clamp
pIC50: −log10 of the molar value.
property.label: pIC50

Examples with their reported pIC50 follow.
compound=CC(C)(C)N1CCn2nc(C(=O)N[C@H]3COc4ccc(Cl)cc4C3)cc2C1 assayed_system="human Nav1.7 (Homo sapiens (Human), UniProt Q15858)" value_reported="> 5.00"
compound="O=C(N[C@H]1COc2ccc(COCC(F)(F)F)cc2C1)c1cc2n(n1)CCC(C(F)F)O2 (single isomer, unassigned) [163 (isomer A)]" assayed_system="human Nav1.7 (Homo sapiens (Human), UniProt Q15858)" value_reported="> 6.00"
compound="O=C(N[C@H]1COc2ccc(C(F)(F)F)cc2C1O)c1cc2n(n1)CC(COCCOCC(F)(F)F)O2 (stereo partly shown)" assayed_system="human Nav1.7 (Homo sapiens (Human), UniProt Q15858)" value_reported="> 5.00"
compound="N#Cc1c(C(=O)N[C@H]2COc3ccccc3C2)nc2n1CC(C(F)(F)F)CC2 (stereo partly shown)" assayed_system="human Nav1.7 (Homo sapiens (Human), UniProt Q15858)" value_reported="> 5.00"
compound="O=C(N[C@H]1COc2ccc(CCOC(F)F)cc2C1)c1cc2n(n1)CC(COCC(F)(F)F)O2 (single isomer, unassigned) [190 (isomer A)]" assayed_system="human Nav1.7 (Homo sapiens (Human), UniProt Q15858)" value_reported="> 6.00"
compound="CC(C)(F)C1CCn2nc(C(=O)N[C@H]3COc4ccc(C#N)cc4C3)cc2O1 (stereo partly shown) [Example 540]" assayed_system="human Nav1.7 (Homo sapiens (Human), UniProt Q15858)" value_reported="> 6.00"

Kindly review the next compound as well.
Would you kindly share the measured pIC50 for `O=C(N[C@H]1COc2ccc(C(F)(F)F)cc2C1)c1nn2c(c1-c1ccn[nH]1)OCCCC2` ?
> 6.00

Measured values drawn from patent US12421225B2 for this set.
